B1: NCF4 (parent)
chain: FGPDSKSSALACTLPTLPAKVYVG

- Variants of: B1
- TEST DESCRIPTION: protein stability index of a GFP-peptide fusion (GPS, HEK-293T) (PSI 1-6); higher = more stable;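 further: lentivirally expressed fusions sorted by FACS into six bins by GFP to DsRed ratio, PSI derived from sequencing read proportions per bin multiplied by bin number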
- PROTOCOL CONDITIONS: c terminus: a fixed tail appended
Returns MET if the recorded protein stability index is greater than or equal to 2, and NOT MET otherwise.

IN: Textbook exercise: given the entry FGPDSKSSALACTMPTLPAKVYVG [L14M] , state whether its protein stability index is greater than or equal to 2.
OUT: MET

IN: Textbook exercise: given the entry FGPQSKSSALACTLPTLPAKVYVG [D4Q] , state whether its protein stability index is greater than or equal to 2.
OUT: MET

IN: Textbook exercise: given the entry FGPDSKSSALLCTLPTLPAKVYVG [A11L] , state whether its protein stability index is greater than or equal to 2.
OUT: MET

IN: Textbook exercise: given the entry FGPDSKSSALVCTLPTLPAKVYVG [A11V] , state whether its protein stability index is greater than or equal to 2.
OUT: NOT MET

IN: Textbook exercise: given the entry FRPDSKSSALACTLPTLPAKVYVG [G2R] , state whether its protein stability index is greater than or equal to 2.
OUT: MET

IN: Textbook exercise: given the entry FGPDSKSSALACTLPTLPAWVYVG [K20W] , state whether its protein stability index is greater than or equal to 2.
OUT: MET

IN: Textbook exercise: given the entry FGPDSKSSALACTLCTLPAKVYVG [P15C] , state whether its protein stability index is greater than or equal to 2.
OUT: MET

IN: Textbook exercise: given the entry QGPDSKSSALACTLPTLPAKVYVG [F1Q] , state whether its protein stability index is greater than or equal to 2.
OUT: MET

IN: Textbook exercise: given the entry FGPDSKSSALACRLPTLPAKVYVG [T13R] , state whether its protein stability index is greater than or equal to 2.
OUT: MET

IN: Textbook exercise: given the entry FGPDSKSSALACTLPTLPAKVYGG [V23G] , state whether its protein stability index is greater than or equal to 2.
OUT: MET

IN: Textbook exercise: given the entry FGPDSKSSALACTLPTLHAKVYVG [P18H] , state whether its protein stability index is greater than or equal to 2.
OUT: MET

IN: Textbook exercise: given the entry FGPDSKSSCLACTLPTLPAKVYVG [A9C] , state whether its protein stability index is greater than or equal to 2.
OUT: NOT MET

IN: Textbook exercise: given the entry FGPDHKSSALACTLPTLPAKVYVG [S5H] , state whether its protein stability index is greater than or equal to 2.
OUT: MET

IN: Textbook exercise: given the entry FGPDSKSSALACTLPFLPAKVYVG [T16F] , state whether its protein stability index is greater than or equal to 2.
OUT: MET

IN: Textbook exercise: given the entry FGRDSKSSALACTLPTLPAKVYVG [P3R] , state whether its protein stability index is greater than or equal to 2.
OUT: MET

IN: Textbook exercise: given the entry FGPDSKSSELACTLPTLPAKVYVG [A9E] , state whether its protein stability index is greater than or equal to 2.
OUT: MET

IN: Textbook exercise: given the entry FGPDSKSSALACTLRTLPAKVYVG [P15R] , state whether its protein stability index is greater than or equal to 2.
OUT: NOT MET

IN: Textbook exercise: given the entry FGPDSKSSALACTLPTLVAKVYVG [P18V] , state whether its protein stability index is greater than or equal to 2.
OUT: NOT MET

IN: Textbook exercise: given the entry FGPDSKSSALACTLPTLPAKDYVG [V21D] , state whether its protein stability index is greater than or equal to 2.
OUT: MET

IN: Textbook exercise: given the entry FGPDSKSSALACTLPTLPAKVYVW [G24W] , state whether its protein stability index is greater than or equal to 2.
OUT: MET

IN: Textbook exercise: given the entry FGPDSKSSALACTLPTLPAKQYVG [V21Q] , state whether its protein stability index is greater than or equal to 2.
OUT: MET

IN: Textbook exercise: given the entry FGPDSKSSALACTLPTLPAKVYDG [V23D] , state whether its protein stability index is greater than or equal to 2.
OUT: MET

IN: Textbook exercise: given the entry FGPDSKSSALACTLPTLYAKVYVG [P18Y] , state whether its protein stability index is greater than or equal to 2.
OUT: MET

IN: Textbook exercise: given the entry FGPDSKSSALATTLPTLPAKVYVG [C12T] , state whether its protein stability index is greater than or equal to 2.
OUT: MET

IN: Textbook exercise: given the entry FGPDDKSSALACTLPTLPAKVYVG [S5D] , state whether its protein stability index is greater than or equal to 2.
OUT: MET

IN: Textbook exercise: given the entry FGPDSKSSALACTLPTLPKKVYVG [A19K] , state whether its protein stability index is greater than or equal to 2.
OUT: MET

IN: Textbook exercise: given the entry FGPDSKSSASACTLPTLPAKVYVG [L10S] , state whether its protein stability index is greater than or equal to 2.
OUT: MET

IN: Textbook exercise: given the entry FGPDSKSSALACTLPTPPAKVYVG [L17P] , state whether its protein stability index is greater than or equal to 2.
OUT: MET

IN: Textbook exercise: given the entry FGPDSKSSALMCTLPTLPAKVYVG [A11M] , state whether its protein stability index is greater than or equal to 2.
OUT: MET

IN: Textbook exercise: given the entry FGPDSKSSALRCTLPTLPAKVYVG [A11R] , state whether its protein stability index is greater than or equal to 2.
OUT: NOT MET

IN: Textbook exercise: given the entry FGPDSKSSALACALPTLPAKVYVG [T13A] , state whether its protein stability index is greater than or equal to 2.
OUT: MET

IN: Textbook exercise: given the entry FGPDSKSSALACTLPTLPAKTYVG [V21T] , state whether its protein stability index is greater than or equal to 2.
OUT: MET

IN: Textbook exercise: given the entry FGPDSKSSALACTLPTLPAKVMVG [Y22M] , state whether its protein stability index is greater than or equal to 2.
OUT: MET

IN: Textbook exercise: given the entry FGPDSKSSALACTAPTLPAKVYVG [L14A] , state whether its protein stability index is greater than or equal to 2.
OUT: MET

IN: Textbook exercise: given the entry FGPDSKSSALACTLPTLPAKVYNG [V23N] , state whether its protein stability index is greater than or equal to 2.
OUT: MET

IN: Textbook exercise: given the entry FGPDSKSSALACTLPTLPMKVYVG [A19M] , state whether its protein stability index is greater than or equal to 2.
OUT: NOT MET

IN: Textbook exercise: given the entry FGPDSKSSALACTLPTLPAQVYVG [K20Q] , state whether its protein stability index is greater than or equal to 2.
OUT: MET

IN: Textbook exercise: given the entry FGTDSKSSALACTLPTLPAKVYVG [P3T] , state whether its protein stability index is greater than or equal to 2.
OUT: MET

IN: Textbook exercise: given the entry FGPDSKSSALACTLPTLPAKVYKG [V23K] , state whether its protein stability index is greater than or equal to 2.
OUT: MET

IN: Textbook exercise: given the entry FWPDSKSSALACTLPTLPAKVYVG [G2W] , state whether its protein stability index is greater than or equal to 2.
OUT: NOT MET

IN: Textbook exercise: given the entry FGPDSKSSALACLLPTLPAKVYVG [T13L] , state whether its protein stability index is greater than or equal to 2.
OUT: NOT MET

IN: Textbook exercise: given the entry FGPASKSSALACTLPTLPAKVYVG [D4A] , state whether its protein stability index is greater than or equal to 2.
OUT: NOT MET

IN: Textbook exercise: given the entry FGPDSKSSALACTHPTLPAKVYVG [L14H] , state whether its protein stability index is greater than or equal to 2.
OUT: MET

IN: Textbook exercise: given the entry FGPDSKSSALACTLPDLPAKVYVG [T16D] , state whether its protein stability index is greater than or equal to 2.
OUT: MET

IN: Textbook exercise: given the entry FGPDSKSSALACTLPTLPAKNYVG [V21N] , state whether its protein stability index is greater than or equal to 2.
OUT: MET

IN: Textbook exercise: given the entry FGPDSKSSALACTLPTLPAKVLVG [Y22L] , state whether its protein stability index is greater than or equal to 2.
OUT: MET

IN: Textbook exercise: given the entry FGPDSKSSALACTLPTLPAKRYVG [V21R] , state whether its protein stability index is greater than or equal to 2.
OUT: MET

IN: Textbook exercise: given the entry FGPDSKSSALAMTLPTLPAKVYVG [C12M] , state whether its protein stability index is greater than or equal to 2.
OUT: MET

IN: Textbook exercise: given the entry FGPDSKSSALACTLPTLPAKIYVG [V21I] , state whether its protein stability index is greater than or equal to 2.
OUT: NOT MET

IN: Textbook exercise: given the entry FGPDSKSSALCCTLPTLPAKVYVG [A11C] , state whether its protein stability index is greater than or equal to 2.
OUT: MET

IN: Textbook exercise: given the entry FGPDSKSSALACTLFTLPAKVYVG [P15F] , state whether its protein stability index is greater than or equal to 2.
OUT: MET

IN: Textbook exercise: given the entry FGPDSKSSALACTLPTLPAKVTVG [Y22T] , state whether its protein stability index is greater than or equal to 2.
OUT: MET

IN: Textbook exercise: given the entry FGPDSKSSALACTLPTLPAKVYVY [G24Y] , state whether its protein stability index is greater than or equal to 2.
OUT: NOT MET

IN: Textbook exercise: given the entry YGPDSKSSALACTLPTLPAKVYVG [F1Y] , state whether its protein stability index is greater than or equal to 2.
OUT: MET

IN: Textbook exercise: given the entry FGPDSKSSALACTLPTLPAKVFVG [Y22F] , state whether its protein stability index is greater than or equal to 2.
OUT: MET

IN: Textbook exercise: given the entry FGPDSKSSALQCTLPTLPAKVYVG [A11Q] , state whether its protein stability index is greater than or equal to 2.
OUT: MET

IN: Textbook exercise: given the entry FGPDSKSSAEACTLPTLPAKVYVG [L10E] , state whether its protein stability index is greater than or equal to 2.
OUT: MET

IN: Textbook exercise: given the entry FGPDSKSSALYCTLPTLPAKVYVG [A11Y] , state whether its protein stability index is greater than or equal to 2.
OUT: NOT MET

IN: Textbook exercise: given the entry FGPDSKSSAAACTLPTLPAKVYVG [L10A] , state whether its protein stability index is greater than or equal to 2.
OUT: MET

IN: Textbook exercise: given the entry FGPDSKHSALACTLPTLPAKVYVG [S7H] , state whether its protein stability index is greater than or equal to 2.
OUT: NOT MET

IN: Textbook exercise: given the entry FGPDSKSSALACTLPTLIAKVYVG [P18I] , state whether its protein stability index is greater than or equal to 2.
OUT: MET

IN: Textbook exercise: given the entry FGPDSKSSALACTLPTLPAKGYVG [V21G] , state whether its protein stability index is greater than or equal to 2.
OUT: MET

IN: Textbook exercise: given the entry FGPDSKSSALACTLPTLPAKVRVG [Y22R] , state whether its protein stability index is greater than or equal to 2.
OUT: MET

IN: Textbook exercise: given the entry FGPDSKSSSLACTLPTLPAKVYVG [A9S] , state whether its protein stability index is greater than or equal to 2.
OUT: MET

IN: Textbook exercise: given the entry CGPDSKSSALACTLPTLPAKVYVG [F1C] , state whether its protein stability index is greater than or equal to 2.
OUT: MET
